Values from patent US4526898A

assay: Toxicity LD50 in mouse; conditions: in vivo, iv
Property label: LD50
Returns: string containing the number followed by the unit.

Give the reported value of LD50 for this record: Cn1cc2c(NC3=NCCN3)cccc2n1
58 mg/kg

Give the reported value of LD50 for this record: Cn1ncc2c(NC3=NCCN3)cccc21 [Sgd 230/75, reference compound]
22 mg/kg

====

assay: Toxicity LD50 in mouse; details: in vivo, po
Property label: LD50 (mg/kg)
The response must be a number in mg/kg with no trailing unit.

Give the reported value of LD50 for this record: Cn1ncc2c(NC3=NCCN3)cccc21 [Sgd 230/75, reference compound]
600

Give the reported value of LD50 for this record: Cn1cc2c(NC3=NCCN3)cccc2n1 [Sgd 101/75]
3900
